B1: NLV2 TCR alpha chain (CDR3α only) (parent)
chain: AGPMKTSYDKVI
partner: NLVGMVATV

Variants of: B1
Assay: T-Switch: Jurkat TCRβ−/− cells expressing a CDR3 saturation-mutagenesis library, stained with two peptide-HLA-A*02:01 tetramers (original and novel peptide) plus anti-CD3, FACS-sorted into four gates, gDNA sequenced
Conditions: with HLA-A*02:01 with peptide … (NLV 2-2, the original bait), tetramers 1 µg/mL, 30 min on ice, DP and SW gates expanded about 10 days between rounds ('two to three rounds of selection' in the Methods), gate SP: higher = more of the variant in the gate that binds the original peptide and not the novel one = retained original binding. Fold enrichment of the CDR3 variant in one FACS gate of a two-tetra, unresolved parent, parent is a CDR3 fragment, scale: fold enrichment, numbering: sequential-on-construct, sequence …
Recorded enrichment, one value per entry.

[…] (CDR3 as printed); M4S derived by comparing it with the table's wild-type CDR3 AGPMKTSYDKVI    7.99
[…] (CDR3 as printed); D9L derived by comparing it with the table's wild-type CDR3 AGPMKTSYDKVI    0
[…] (CDR3 as printed); M4D derived by comparing it with the table's wild-type CDR3 AGPMKTSYDKVI    0
[…] (CDR3 as printed); M4H derived by comparing it with the table's wild-type CDR3 AGPMKTSYDKVI    2.65
[…] (CDR3 as printed); G2T derived by comparing it with the table's wild-type CDR3 AGPMKTSYDKVI    10.1

[ask] Annotate the variant […] (CDR3 as printed); G2Q derived by comparing it with the table's wild-type CDR3 AGPMKTSYDKVI with its measured enrichment.
[reply] 0

[ask] Annotate the variant […] (CDR3 as printed); A1P derived by comparing it with the table's wild-type CDR3 AGPMKTSYDKVI with its measured enrichment.
[reply] 2.46

[ask] Annotate the variant […] (CDR3 as printed); T6E derived by comparing it with the table's wild-type CDR3 AGPMKTSYDKVI with its measured enrichment.
[reply] 0

[ask] Annotate the variant […] (CDR3 as printed); T6Q derived by comparing it with the table's wild-type CDR3 AGPMKTSYDKVI with its measured enrichment.
[reply] 0

[ask] Annotate the variant […] (CDR3 as printed); S7T derived by comparing it with the table's wild-type CDR3 AGPMKTSYDKVI with its measured enrichment.
[reply] 0

[ask] Annotate the variant […] (CDR3 as printed); K5E derived by comparing it with the table's wild-type CDR3 AGPMKTSYDKVI with its measured enrichment.
[reply] 21.3

[ask] Annotate the variant […] (CDR3 as printed); D9S derived by comparing it with the table's wild-type CDR3 AGPMKTSYDKVI with its measured enrichment.
[reply] 0

[ask] Annotate the variant […] (CDR3 as printed); K10Y derived by comparing it with the table's wild-type CDR3 AGPMKTSYDKVI with its measured enrichment.
[reply] 4.15
